# subjectOfTest: T1, human MSLN-R3-3 polypeptide (human)
# T1 construct: also called human MSLN-R3-3 protein; hMSLN-R3-3
# experimentNotes: ELISA, coated MSLN-R3-3;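 further: chimeric antibodies in serial dilution bound to plate-coated antigen for 2 h at 37 °C, with a negative control antibody alongside, and TMB colour development stopped with HCl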
readoutName: OD450 at 100 nM (OD450)
State the answer as a number, implicitly in OD450.

Query: Look up OD450 at 100 nM: S009-F1.62.9 (antibody, human IgG1, kappa, V domains shown, Human-murine chimeric antibody, human IgG1/kappa constant regions) VH: EVQLQQSGADLVKPGASVKLSCTVFGLNFKDTFMHWVRQRPEQGLEWIGRIDPANDNSIYGPKFQDKATITADTSSNTAYLHLSSLTSEDTAVYYCLYFDNWGHGTTLTVSS VL: DIVMTQAASSEPVTPGESVSISCRSDKSLLHSNGHNYLYWFLQRPGQSPHLLIYRMSNLASGVPDRFSGSGSGTAFTLRISRVEAEDVGVYYCMQHLEYPLTFGAGTKLELKR
Result: 0.13
